Experiment: Selectivity index, ratio of IC50 for human MCF7 cells to IC50 for chloroquine-resistant Plasmodium falciparum Dd2
Type: toxicity, cell-based
Settings: read-out: Ratio IC50
outcome_measure: selectivity ratio

Look up selectivity ratio: CO[C@H]1C=C2[C@@H](CC[C@H](OC(C)=O)C2(C)C)[C@]2(C)CC[C@]3(C)[C@@H]([C@H](C)C[C@H](C=C(C)C)OC(C)=O)CC[C@@]3(C)[C@H]12 [KARAVOATE B]
126

Look up selectivity ratio: CO[C@H]1C=C2[C@@H](CC[C@H](OC(=O)/C=C/c3ccccc3)C2(C)C)[C@]2(C)CC[C@]3(C)[C@@H]([C@H](C)C[C@H](C=C(C)C)OC(=O)/C=C/c4ccccc4)CC[C@@]3(C)[C@H]12 [KARAVOATE P]
> 2.4

----------
System: Plasmodium falciparum
Assay: Antimalarial activity against chloroquine-sensitive Plasmodium falciparum 3D7 infected in erythrocytes after 48 hrs by SYBR Green 1-based fluorescence assay
Assay type: functional, organism-based
Settings: 3D7, 48 h
Catalogue of pIC50 readings, one per entry.
# log scale: pIC50 equals minus log10 of the concentration in mol/L

compound="CO[C@H]1C=C2[C@@H](CC[C@H](O)C2(C)C)[C@]2(C)CC[C@]3(C)[C@@H]([C@H](C)C[C@H](C=C(C)C)OC(=O)c4ccc([N+](=O)[O-])cc4)CC[C@@]3(C)[C@H]12 [KARAVOATE I]" observed_measurement=5.59
compound=CO[C@H]1C=C2[C@@H](CC[C@H](O)C2(C)C)[C@]2(C)CC[C@]3(C)[C@@H]([C@H](C)C[C@@H](O)C=C(C)C)CC[C@@]3(C)[C@H]12 observed_measurement=4.98
compound="CO[C@H]1C=C2[C@@H](CC[C@H](OC(=O)c3ccc([N+](=O)[O-])cc3)C2(C)C)[C@]2(C)CC[C@]3(C)[C@@H]([C@H](C)C[C@H](C=C(C)C)OC(=O)c4ccc([N+](=O)[O-])cc4)CC[C@@]3(C)[C@H]12 [KARAVOATE J]" observed_measurement=4.73
compound="COc1ccc(C(=O)O[C@H]2CC[C@@H]3C(=C[C@H](OC)[C@@H]4[C@@]3(C)CC[C@]3(C)[C@@H]([C@H](C)C[C@H](C=C(C)C)OC(=O)c5ccc(OC)cc5)CC[C@@]43C)C2(C)C)cc1 [KARAVOATE N]" observed_measurement=5.62

Look up pIC50: CO[C@H]1C=C2[C@@H](CC[C@H](O)C2(C)C)[C@]2(C)CC[C@]3(C)[C@@H]([C@H](C)C[C@H](C=C(C)C)OC(C)=O)CC[C@@]3(C)[C@H]12 [KARAVOATE A]
5.17

----------
Catalogue of selectivity ratio readings, one per entry.
Assay: Selectivity index, ratio of IC50 for human MCF7 cells to IC50 for chloroquine-sensitive Plasmodium falciparum 3D7
Assay type: toxicity, cell-based
Details: read-out: Ratio IC50

The following molecules have reported results that may help.
molecule="CO[C@H]1C=C2[C@@H](CC[C@H](O)C2(C)C)[C@]2(C)CC[C@]3(C)[C@@H]([C@H](C)C[C@H](C=C(C)C)OC(=O)/C=C/c4ccccc4)CC[C@@]3(C)[C@H]12 [KARAVOATE O]" observed_measurement="> 20.3"
molecule="CO[C@H]1C=C2[C@@H](CC[C@H](OC(C)=O)C2(C)C)[C@]2(C)CC[C@]3(C)[C@@H]([C@H](C)C[C@H](C=C(C)C)OC(C)=O)CC[C@@]3(C)[C@H]12 [KARAVOATE B]" observed_measurement=151
molecule="CCCC(=O)O[C@H]1CC[C@@H]2C(=C[C@H](OC)[C@@H]3[C@@]2(C)CC[C@]2(C)[C@@H]([C@H](C)C[C@H](C=C(C)C)OC(=O)CCC)CC[C@@]32C)C1(C)C [KARAVOATE F]" observed_measurement="> 19.4"
molecule="CCCC(=O)O[C@@H](C=C(C)C)C[C@@H](C)[C@H]1CC[C@@]2(C)[C@@H]3[C@@H](OC)C=C4[C@@H](CC[C@H](O)C4(C)C)[C@]3(C)CC[C@]12C [KARAVOATE E]" observed_measurement=20.8
molecule="COc1ccc(C(=O)O[C@H]2CC[C@@H]3C(=C[C@H](OC)[C@@H]4[C@@]3(C)CC[C@]3(C)[C@@H]([C@H](C)C[C@H](C=C(C)C)OC(=O)c5ccc(OC)cc5)CC[C@@]43C)C2(C)C)cc1 [KARAVOATE N]" observed_measurement="> 55.4"

// next entry
Look up selectivity ratio: CO[C@H]1C=C2[C@@H](CC[C@H](O)C2(C)C)[C@]2(C)CC[C@]3(C)[C@@H]([C@H](C)C[C@@H](O)C=C(C)C)CC[C@@]3(C)[C@H]12 [KARAVELAGENIN C]
1.6

----------
Test: Selectivity index, ratio of IC50 for human MCF7 cells to IC50 for chloroquine-resistant Plasmodium falciparum Dd2
Format: toxicity, cell-based
Conditions: read-out: Ratio IC50
outcome_measure: selectivity ratio

The following compounds have reported results that may help.
compound="CO[C@H]1C=C2[C@@H](CC[C@H](O)C2(C)C)[C@]2(C)CC[C@]3(C)[C@@H]([C@H](C)C[C@H](C=C(C)C)OC(=O)c4ccc(Cl)cc4)CC[C@@]3(C)[C@H]12 [KARAVOATE K]" observed_measurement="> 5.7"
compound="CO[C@H]1C=C2[C@@H](CC[C@H](OC(=O)c3ccc([N+](=O)[O-])cc3)C2(C)C)[C@]2(C)CC[C@]3(C)[C@@H]([C@H](C)C[C@H](C=C(C)C)OC(=O)c4ccc([N+](=O)[O-])cc4)CC[C@@]3(C)[C@H]12 [KARAVOATE J]" observed_measurement="> 6.43"
compound="CO[C@H]1C=C2[C@@H](CC[C@H](O)C2(C)C)[C@]2(C)CC[C@]3(C)[C@@H]([C@H](C)C[C@H](C=C(C)C)OC(=O)c4ccc([N+](=O)[O-])cc4)CC[C@@]3(C)[C@H]12 [KARAVOATE I]" observed_measurement="> 296"
compound="CO[C@H]1C=C2[C@@H](CC[C@H](OC(=O)c3ccccc3)C2(C)C)[C@]2(C)CC[C@]3(C)[C@@H]([C@H](C)C[C@H](C=C(C)C)OC(=O)c4ccccc4)CC[C@@]3(C)[C@H]12 [KARAVOATE H]" observed_measurement="> 4.4"
compound="CO[C@H]1C=C2[C@@H](CC[C@H](O)C2(C)C)[C@]2(C)CC[C@]3(C)[C@@H]([C@H](C)C[C@H](C=C(C)C)OC(C)=O)CC[C@@]3(C)[C@H]12 [KARAVOATE A]" observed_measurement=2.5
compound="CCC(=O)O[C@@H](C=C(C)C)C[C@@H](C)[C@H]1CC[C@@]2(C)[C@@H]3[C@@H](OC)C=C4[C@@H](CC[C@H](O)C4(C)C)[C@]3(C)CC[C@]12C [KARAVOATE C]" observed_measurement=0.9

Look up selectivity ratio: COc1ccc(C(=O)O[C@H]2CC[C@@H]3C(=C[C@H](OC)[C@@H]4[C@@]3(C)CC[C@]3(C)[C@@H]([C@H](C)C[C@H](C=C(C)C)OC(=O)c5ccc(OC)cc5)CC[C@@]43C)C2(C)C)cc1 [KARAVOATE N]
> 2.8

----------
Assay: Selectivity index, ratio of IC50 for human MCF7 cells to IC50 for chloroquine-sensitive Plasmodium falciparum 3D7
Type: toxicity, cell-based
Settings: read-out: Ratio IC50
Catalogue of selectivity ratio readings, one per entry.

The following compounds have reported results that may help.
compound="CO[C@H]1C=C2[C@@H](CC[C@H](OC(=O)c3ccc(Cl)cc3)C2(C)C)[C@]2(C)CC[C@]3(C)[C@@H]([C@H](C)C[C@H](C=C(C)C)OC(=O)c4ccc(Cl)cc4)CC[C@@]3(C)[C@H]12 [KARAVOATE L]" observed_measurement="> 5.9"
compound="COc1ccc(C(=O)O[C@@H](C=C(C)C)C[C@@H](C)[C@H]2CC[C@@]3(C)[C@@H]4[C@@H](OC)C=C5[C@@H](CC[C@H](O)C5(C)C)[C@]4(C)CC[C@]23C)cc1 [KARAVOATE M]" observed_measurement="> 43.6"
compound="CCC(=O)O[C@@H](C=C(C)C)C[C@@H](C)[C@H]1CC[C@@]2(C)[C@@H]3[C@@H](OC)C=C4[C@@H](CC[C@H](O)C4(C)C)[C@]3(C)CC[C@]12C [KARAVOATE C]" observed_measurement=3.7

Look up selectivity ratio: CO[C@H]1C=C2[C@@H](CC[C@H](OC(=O)c3ccc([N+](=O)[O-])cc3)C2(C)C)[C@]2(C)CC[C@]3(C)[C@@H]([C@H](C)C[C@H](C=C(C)C)OC(=O)c4ccc([N+](=O)[O-])cc4)CC[C@@]3(C)[C@H]12 [KARAVOATE J]
> 7.2

Look up selectivity ratio: CO[C@H]1C=C2[C@@H](CC[C@H](O)C2(C)C)[C@]2(C)CC[C@]3(C)[C@@H]([C@H](C)C[C@H](C=C(C)C)OC(=O)c4ccc([N+](=O)[O-])cc4)CC[C@@]3(C)[C@H]12 [KARAVOATE I]
> 51.4

Look up selectivity ratio: CO[C@H]1C=C2[C@@H](CC[C@H](O)C2(C)C)[C@]2(C)CC[C@]3(C)[C@@H]([C@H](C)C[C@H](C=C(C)C)OC(=O)c4ccc(Cl)cc4)CC[C@@]3(C)[C@H]12 [KARAVOATE K]
> 10

Look up selectivity ratio: CO[C@H]1C=C2[C@@H](CC[C@H](O)C2(C)C)[C@]2(C)C[C@@H](O)[C@]3(C)[C@@H]([C@H](C)C[C@@H](O)C=C(C)C)CC[C@@]3(C)[C@H]12 [CUCURBALSAMINOL C]
0.8
